assaySystem: SARS-CoV spike protein (full-length trimeric, on beads) (SARS-CoV, UniProt P59594 14-1190)
measurementName: bead binding signal, fold over isotype control (fold over isotype)

1) antibody 497 (antibody, V domains shown) VH: QVQLQESGPGLVKPSQTLSLTCTVSGGSINSFGYYWSWIRQHPGKGLEWIGYIYYSGSTDYNPSLNSRVTISLDTSKNQFLLKLTSVTAADTAVYYCAKLTDYYDSSGYSFDYWGQGTLVTVSS VL: DIQMTQSPSSVSASVGDRVTITCRASQDISRWLAWYQQKPGKAPKLLIYAASSLQSGVPSRFSGRGSGTELTLTISSLQPEDFATYFCQQAYSFPFTFGGGTKVEIK	1.23
2) antibody 523 (antibody, V domains shown) VH: EVQLVESGGVSVQPGGSLRLSCAASGFSFNTYDMHWVRQGTGKGLEWVSGIGTAGDTYYSDSVKGRCTISRDNAKNSLHLLVKSVRAADTAVYYCARGVGGIIDYWGQGTLVTVSS VL: NFVLSQPHSVSESPGKTVTISCTGNSGSIATKYVQWFQQRPGSAPTTVIYEDNQRPSGVPDRFSGSSDSSSNSASLTISGLKTEDEAHYYCQSYHNRRWVFGGGTKLTVL	1.11
3) antibody 516 (antibody, V domains shown) VH: QVELQQWGAGLLKPSETLSLTCAVYGGSFSGYYWSWIRQPPGKGLEWIGEINHSGSTNYNPSLKSRVTISIDTSKNQFSLKLSSVTAADTAVYYCARGTTVTTFFAPHWYFDLWGRGTLVTVSS VL: QSALTQPASVSGSPGQSITISCTGTSSDVGGYNYVSWYQQHPGKAPKLMIYDVSNRPSGVSNRFSGSKSGNTASLTISGLQAEDEADYYCSSYTSSSTPYVFGTGTKVTVL	1.03
